# Measured On: human MC1R (Homo sapiens, UniProt Q01726)
# Sequence (Q01726 whole entry): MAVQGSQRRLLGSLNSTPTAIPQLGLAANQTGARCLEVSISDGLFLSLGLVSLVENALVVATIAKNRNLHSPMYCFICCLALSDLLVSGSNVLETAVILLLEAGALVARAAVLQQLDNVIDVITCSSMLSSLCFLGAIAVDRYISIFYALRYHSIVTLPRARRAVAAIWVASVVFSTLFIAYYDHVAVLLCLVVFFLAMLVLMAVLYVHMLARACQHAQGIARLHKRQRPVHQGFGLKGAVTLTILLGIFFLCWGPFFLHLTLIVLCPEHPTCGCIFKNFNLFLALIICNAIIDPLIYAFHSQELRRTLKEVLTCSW
# Assay Method Text: CHO-6xCRE-luc+ reporter gene assay, MC1R agonist activity
# Assay Context: CHO-6xCRE-luc+ cells expressing human MC1R, 4 h at 37° C., luciferase activity
pEC50: −log10 of the molar value.
Assay Readout: pEC50

// known answers, use as guide
CC(C)N(C(=O)CN1C=CN(c2ccccc2)C(=O)C(Cc2n[nH]c3cc(F)ccc23)C1=O)c1ccc(F)cc1 (centres unmarked)
7.85
COc1ccc(N(C(=O)CN2C=CN(c3ccccc3)C(=O)C(Cn3cnc4ccccc43)C2=O)C(C)C)cc1 (centres unmarked)
6.74
CC(C)N(C(=O)CN1C=CN(c2ccccc2)C(=O)C(Cc2n[nH]c3ccccc23)C1=O)c1ccc(I)cc1 (centres unmarked)
7.14

A. CCCN(C(=O)CN1C=CN(c2ccccc2)C(=O)C(Cc2n[nH]c3ccccc23)C1=O)c1ccc(OC)cc1 (centres unmarked)
B. CCCc1ccc(N(C(=O)CN2C=CN(c3ccccc3)C(=O)C(Cc3n[nH]c4ccccc34)C2=O)C(C)C)cc1 (centres unmarked)
Input line: // returns A or B , whichever has the lower pEC50 The response must carry the label of the picked entry.
Output line: B
(B: 6.70, A: 7.29)

====

# Measured On: human MC4R (Homo sapiens, UniProt P32245)
# Sequence (P32245 whole entry): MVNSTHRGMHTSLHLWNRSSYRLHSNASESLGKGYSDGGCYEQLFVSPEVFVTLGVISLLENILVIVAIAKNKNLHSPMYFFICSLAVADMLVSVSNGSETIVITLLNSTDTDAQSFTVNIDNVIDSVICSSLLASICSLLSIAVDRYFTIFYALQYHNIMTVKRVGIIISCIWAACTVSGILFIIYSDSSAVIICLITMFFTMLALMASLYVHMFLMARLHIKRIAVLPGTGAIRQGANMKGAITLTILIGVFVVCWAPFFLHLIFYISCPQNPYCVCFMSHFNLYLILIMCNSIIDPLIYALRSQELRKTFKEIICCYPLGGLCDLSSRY
# Assay Method Text: CHO-6xCRE-luc+ reporter gene assay, MC4R agonist activity
# Assay Context: CHO-6xCRE-luc+ cells expressing human MC4R, 4 h at 37° C., luciferase activity
Assay Readout: EC50 (nM)

// known answers, use as guide
COc1ccc(N(C(=O)CN2C=CN(c3ccccc3)C(=O)C(Cn3c(=O)[nH]c4ccccc43)C2=O)C(C)C)cc1 (stereo not drawn) [Example 12]
437
COC1(Cc2n[nH]c3ccccc23)C(=O)N(CC(=O)N(c2ccc(F)cc2)C(C)C)C=CN(c2ccccc2)C1=O (stereo not drawn) [Example 5]
151
COc1ccc(N(C(=O)CN2C=CN(c3ccccc3)C(=O)C(Cc3n[nH]c4ccccc34)C2=O)C(C)C)cc1 (single isomer, unassigned) [Example 2]
282
CC(C)N(C(=O)CN1C=CN(c2ccccc2)C(=O)C(Cc2n[nH]c3ccccc23)C1=O)c1ccc(I)cc1 (stereo not drawn) [Example 10]
398
CCOc1ccc(N(C(=O)CN2C=CN(c3ccccc3)C(=O)C(Cc3n[nH]c4ccccc34)C2=O)C(C)C)cc1 (stereo not drawn) [Example 13]
513
COc1cccc2c1CCCCN2C(=O)CN1C=CN(c2ccccc2)C(=O)C(Cc2n[nH]c3ccccc23)C1=O (stereo not drawn) [Example 7]
347

1. CC(C)N(C(=O)CN1C=CN(c2ccccc2)C(=O)C(Cc2n[nH]c3ccccc23)C1=O)c1ccc(C(F)(F)F)cc1 (stereo not drawn) [Example 11]
2. CC(C)N(C(=O)CN1C=CN(c2ccccc2)C(=O)C(Cc2n[nH]c3ccccc23)C1=O)c1ccc(OC(F)(F)F)cc1 (stereo not drawn) [Example 6]
3. Cc1cc(OC(F)(F)F)ccc1N(C(=O)CN1C=CN(c2ccccc2)C(=O)C(Cc2n[nH]c3ccccc23)C1=O)C(C)C (stereo not drawn) [Example 4]
Input line: Arrange the 3 entries by EC50 so the values rise. Could you list the labels in the order requested?
Output line: 3, 2, 1

====

# Measured On: human MC1R (Homo sapiens)
# Construct: expressed in transfected cells; host or cells: CHO-6xCRE-luc+ reporter cell line
# Assay Method Text: CHO-6xCRE-luc+ reporter gene assay, MC1R agonist activity
# Assay type: cell-based
# Assay Context: 4 h, percentage of the fold stimulation in the NDP-αMSH control (1×10^−7 M), human MC1R; read-out: % of MSH
Assay Readout: Emax (%)

// known answers, use as guide
COc1ccc(N(C(=O)CN2C=CN(c3ccccc3)C(=O)C(Cc3n[nH]c4cc(F)ccc34)C2=O)C(C)C)cc1 (stereo not shown) [Example 17]
83
O=C1C(Cc2n[nH]c3cc(F)ccc23)C(=O)N(c2ccccc2)C=CN1CC(=O)N1CCCCc2ccccc21 (stereo not shown) [Example 15]
61
Cc1ccc(N(C(=O)CN2C=CN(c3ccccc3)C(=O)C(Cc3n[nH]c4ccccc34)C2=O)C(C)C)cc1 (stereo not shown) [Example 14]
69
CCc1ccc(N(C(=O)CN2C=CN(c3ccccc3)C(=O)C(Cc3n[nH]c4ccccc34)C2=O)C(C)C)cc1 (stereo not shown) [Example 8]
72
CCN(C(=O)CN1C=CN(c2ccccc2)C(=O)C(Cc2n[nH]c3ccccc23)C1=O)c1ccc(OC)cc1 (stereo not shown) [Example 25]
72

P. COc1cccc2c1CCCCN2C(=O)CN1C=CN(c2ccccc2)C(=O)C(Cc2n[nH]c3ccccc23)C1=O (stereo not shown) [Example 7]
Q. CC(C)N(C(=O)CN1C=CN(c2ccccc2)C(=O)C(Cc2n[nH]c3ccccc23)C1=O)c1ccc(O)cc1 (stereo not shown) [Example 28]
Input line: // returns P or Q , whichever has the lower Emax The response must carry the label of the picked entry.
Output line: P

1. CC(C)N(C(=O)CN1C=CN(c2ccccc2)C(=O)C(Cc2n[nH]c3ccccc23)C1=O)c1ccc(F)cc1 (stereo not shown) [Example 22]
2. CC(C)N(C(=O)CN1C=CN(c2ccccc2)C(=O)C(Cc2n[nH]c3cc(F)ccc23)C1=O)c1ccccc1 (single isomer, unassigned) [Example 21]
Input line: Lab note: record which item had the higher Emax, 1 or 2 . The response must carry the label of the picked entry.
Output line: 2
(2: 79%, 1: 54%)

====

# Measured On: human MC1R (Homo sapiens, UniProt Q01726)
# Construct: expressed in transfected cells; host or cells: CHO-6xCRE-luc+ reporter cell line
# Assay Method Text: CHO-6xCRE-luc+ reporter gene assay, MC1R agonist activity
# Format: cell-based
# Assay Context: CHO-6xCRE-luc+ cells expressing human MC1R, 4 h at 37° C., luciferase activity
Assay Readout: EC50 (nM)

COc1ccc(N(C(=O)CN2C=CN(c3ccccc3)C(=O)C(Cn3c(=O)[nH]c4ccccc43)C2=O)C(C)C)cc1 (stereo not shown)
19.5
O=C1C(Cc2n[nH]c3ccccc23)C(=O)N(c2ccccc2)C=CN1CC(=O)N1CCCCc2ccccc21 (stereo not shown) [Example 16]
1.58
COc1ccc(N(C(=O)CN2C=CN(c3ccccc3)C(=O)C(Cc3n[nH]c4c3CCCC4)C2=O)C(C)C)cc1 (stereo not shown)
129
O=C1C(Cc2n[nH]c3ccccc23)C(=O)N(c2ccccc2)C=CN1CC(=O)N1CCCCc2ccccc21 (single isomer, unassigned) [Example 18]
1.58
COc1cccc2c1CCCCN2C(=O)CN1C=CN(c2ccccc2)C(=O)C(Cc2n[nH]c3ccccc23)C1=O (stereo not shown)
40.7

I. COc1ccc(N(C(=O)CN2C=CN(c3ccccc3)C(=O)C(Cc3n[nH]c4cc(F)ccc34)C2=O)C(C)C)cc1 (stereo not shown)
II. CC(C)N(C(=O)CN1C=CN(c2ccccc2)C(=O)C(Cc2n[nH]c3ccccc23)C1=O)c1ccc(O)cc1 (stereo not shown)
Input line: // returns I or II , whichever has the lower EC50 The response must carry the label of the picked entry.
Output line: I

====

# Measured On: human MC1R (Homo sapiens, UniProt Q01726)
# Construct: expressed in transfected cells; host or cells: CHO-6xCRE-luc+ reporter cell line
# Assay Method Text: CHO-6xCRE-luc+ reporter gene assay, MC1R agonist activity
# Type: cell-based
# Assay Context: 4 h, percentage of the fold stimulation in the NDP-αMSH control (1×10^−7 M), human MC1R; read-out: % of MSH
# Description: CHO-6×CRE-luc^+ reporter cell lines expressing human MC1R, MC3R, MC4R, and MC5R (GenBank accession numbers X65634, L06155, S77415 and U08353) and the CHO host reporter gene cell line were propagated in complete medium in T225 flasks. […] The plates were then sealed and subjected to dark adaptation at room temperature for 10 min before luciferase activity was quantitated on a TopCount™ microplate scintillation counter (Packard) using 3 s/well count time. […]
Assay Readout: Emax (%)

O=C1C(Cc2n[nH]c3ccccc23)C(=O)N(c2ccccc2)C=CN1CC(=O)N1CCCCc2ccccc21 (centres unmarked) [Example 16]
61
COc1ccc(N(C(=O)CN2C=CN(c3ccccc3)C(=O)C(Cn3cnc4ccccc43)C2=O)C(C)C)cc1 (centres unmarked)
103
CC(C)c1ccc(N(C(=O)CN2C=CN(c3ccccc3)C(=O)C(Cc3n[nH]c4ccccc34)C2=O)C(C)C)cc1 (centres unmarked)
40
CC(C)N(C(=O)CN1C=CN(c2ccccc2)C(=O)C(Cc2n[nH]c3ccccc23)C1=O)c1ccccc1 (centres unmarked)
54
COc1ccc(N(C(=O)CN2C=CN(c3ccccc3)C(=O)C(Cc3n[nH]c4c3CCCC4)C2=O)C(C)C)cc1 (centres unmarked)
95

1. CCCc1ccc(N(C(=O)CN2C=CN(c3ccccc3)C(=O)C(Cc3n[nH]c4ccccc34)C2=O)C(C)C)cc1 (centres unmarked)
2. COc1ccc(N(C(=O)CN2C=CN(c3ccccc3)C(=O)C(Cc3n[nH]c4ccccc34)C2=O)C(C)C)cc1 (centres unmarked) [Example 1]
Input line: // returns 1 or 2 , whichever has the lower Emax The response must carry the label of the picked entry.
Output line: 1
(1: 37%, 2: 68%)

I. CC1CCc2ccccc2N1C(=O)CN1C=CN(c2ccccc2)C(=O)C(Cc2n[nH]c3ccccc23)C1=O (centres unmarked)
II. CC(C)Oc1ccc(N(C(=O)CN2C=CN(c3ccccc3)C(=O)C(Cc3n[nH]c4ccccc34)C2=O)C(C)C)cc1 (centres unmarked)
Input line: Lab note: record which item had the higher Emax, I or II . The response must carry the label of the picked entry.
Output line: I
(I: 69%, II: 41%)
